# target_or_system: human mAChR M1 (Homo sapiens)
# experiment_description: mAChR M1 cell-based functional assay: calcium mobilization, positive allosteric modulator mode (increase in EC20 acetylcholine response)
# settings: Table 2; human M1; read-out: Human M1 EC50
So basically, if EC50 comes in under 300 nM it's Yes, and if it's 300 nM or more it's No.

These solved cases illustrate the format of a correct answer.
- molecule: "Cn1cc(-c2ccc(Cc3cc(C(=O)NC4CC(F)(F)C4)nc4ccsc34)cn2)cn1"
  answer_label: "Yes"
- molecule: "Cc1nc(-c2ccc(Cc3cc(C(=O)NC4CCCCC4)nc4ccsc34)cc2)cs1"
  answer_label: "No"
- molecule: "Cn1cc(-c2ccc(Cc3cc(C(=O)NCC4CCCCO4)nc4ccsc34)cn2)cn1 (stereo not shown)"
  answer_label: "Yes"
- molecule: "CN1CCCC(NC(=O)c2cc(Cc3ccc(-n4cccn4)cc3)c3sccc3n2)C1 (stereo not shown)"
  answer_label: "No"
- molecule: "Cn1cc(-c2ccc(Cc3cc(C(=O)N[C@@H]4CCOC4)nc4ccsc34)cn2)cn1"
  answer_label: "No"

**Q:** # TODO verify EC50 < 300 nM strictly for this molecule: Cc1nc(-c2ccc(Cc3cc(C(=O)NC4CCOC(C)(C)C4)nc4ccsc34)cc2)co1 (stereo not shown)
**A:** Yes

**Q:** Quick check: does Cc1csc2c(Cc3ccc(-n4cccn4)cc3)cc(C(=O)NC3CCN(C)CC3)nc12 have EC50 under 300 nM?
**A:** No

**Q:** Criterion: EC50 strictly below 300 nM. Is it met by Cc1csc2c(Cc3ccc(-n4cccn4)cc3)cc(C(=O)NCC3CCO3)nc12 (stereo not shown) ?
**A:** No

----------
# target_or_system: human mAChR M1 (Homo sapiens, UniProt P11229)
# experiment_description: mAChR M1 cell-based functional assay: calcium mobilization, positive allosteric modulator mode (increase in EC20 acetylcholine response)
# settings: Table 2; human M1; read-out: Human M1 EC50
# Experimental: a. Cell Lines Expressing Muscarinic Acetylcholine Receptors Chinese hamster ovary (CHO-K1) cells stably expressing rat (r)M1 were purchased from the American Type Culture Collection and cultured according to their indicated protocol. […] Calcium flux was measured using the Functional Drug Screening System (FDSS) 6000 (Hamamatsu Corporation, Tokyo, Japan) as an increase in the fluorescent static ratio. […]
measure: pEC50
Units for pEC50: none; it is -log10 of a concentration expressed in mol/L.

Some compounds with recorded pEC50:
- compound: "CC1(NC(=O)c2cc(Cc3ccc(-n4cccn4)cc3)c3sccc3n2)CCCNC1 (centres unmarked)"
  test_result: 5.95
- compound: "Cc1cc2nc(C(=O)N[C@H]3CCOC[C@@H]3O)cc(Cc3ccc(-n4cccn4)cc3)c2s1"
  test_result: 6.97
- compound: "O=C(N[C@@H]1CCCC[C@H]1O)c1cc(Cc2ccc(C(F)(F)F)nc2)c2sccc2n1"
  test_result: 6.81
- compound: "O=C(NC1CCOC1)c1cc(Cc2ccc(-n3cccn3)cc2)c2sccc2n1 (centres unmarked)"
  test_result: 5.71
- compound: "O=C(NC1CCS(=O)(=O)C1)c1cc(Cc2ccc(-n3cccn3)cc2)c2sccc2n1 (centres unmarked)"
  test_result: 6.40
- compound: "C[C@@H]1COCC[C@@H]1NC(=O)c1cc(Cc2ccc(-c3cncs3)cc2)c2sccc2n1"
  test_result: 6.70
- compound: "COCCNC(=O)c1cc(Cc2ccc(-c3ccn(C)n3)nc2)c2sccc2n1"
  test_result: 5.89
- compound: "Cc1nc(-c2ccc(Cc3cc(C(=O)NC4CCCCNC4=O)nc4ccsc34)cc2)co1 (centres unmarked)"
  test_result: 6.16

Now consider the entry below.
**Q:** # query: pEC50 of entry Cn1ncc2nc(C(=O)NC[C@H]3CCCO3)cc(Cc3ccc(-c4cscn4)cc3)c21
**A:** 5.41

----------
# target_or_system: human mAChR M1 (Homo sapiens)
# Sequence (P11229 1-460): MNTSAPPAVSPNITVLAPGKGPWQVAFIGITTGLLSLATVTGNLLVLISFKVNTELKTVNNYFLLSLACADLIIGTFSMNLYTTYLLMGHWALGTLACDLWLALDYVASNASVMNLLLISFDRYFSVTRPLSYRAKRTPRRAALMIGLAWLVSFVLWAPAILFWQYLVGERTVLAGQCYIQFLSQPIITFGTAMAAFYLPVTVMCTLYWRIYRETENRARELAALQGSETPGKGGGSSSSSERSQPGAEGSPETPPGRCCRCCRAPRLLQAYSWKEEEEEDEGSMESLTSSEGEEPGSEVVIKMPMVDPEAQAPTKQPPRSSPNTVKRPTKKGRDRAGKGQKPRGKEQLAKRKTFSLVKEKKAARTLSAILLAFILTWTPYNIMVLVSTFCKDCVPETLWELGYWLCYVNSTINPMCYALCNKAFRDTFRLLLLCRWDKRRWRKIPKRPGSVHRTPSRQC
# experiment_description: mAChR M1 cell-based functional assay: calcium mobilization, positive allosteric modulator mode (increase in EC20 acetylcholine response)
# settings: Table 2; human M1; read-out: Human M1 EC50
# reported pEC50; entries follow
pEC50 (log units): -log10 of the concentration in mol/L.

Answered examples (6):
- substance_smiles: "O=C(N[C@@H]1CCCCC[C@H]1O)c1cc(Cc2ccc(C(F)(F)F)nc2)c2sccc2n1"
  pEC50: 5.90
- substance_smiles: "Cc1ccc(Cc2cc(C(=O)N[C@@H]3COCC[C@H]3O)nc3c(C)csc23)cn1"
  pEC50: 6.08
- substance_smiles: "O=C(N[C@H]1CCOC[C@@H]1O)c1cc(Cc2ccc(-c3cscn3)cc2)c2sccc2n1"
  pEC50: 8.00
- substance_smiles: "Cn1cc(-c2ccc(Cc3cc(C(=O)N[C@@H]4CCCCC[C@H]4O)nc4ccsc34)cc2)nn1"
  pEC50: 7.62
- substance_smiles: "Cn1ccc(-c2ccc(Cc3cc(C(=O)N[C@H]4CCCOC4)nc4ccsc34)cn2)n1"
  pEC50: 5.79
- substance_smiles: "Cc1csc2c(Cc3ccc(-c4ccn(C)n4)cc3)cc(C(=O)NC3COC3)nc12"
  pEC50: 5.46

**Q:** Entry under review: CO[C@H]1CCCC[C@@H]1NC(=O)c1cc(Cc2ccc(-c3csc(C)n3)cc2)c2sccc2n1 . Reported pEC50?
**A:** 5.62

**Q:** pEC50 lookup needed for Cc1csc2c(Cc3ccc(-n4cccn4)cc3)cc(C(=O)N[C@@H]3CCOC3)nc12 , thanks.
**A:** 5.96

----------
Reported Emax values are given for each entry in this list.
# target_or_system: human mAChR M1 (Homo sapiens, UniProt P11229)
# experiment_description: mAChR M1 cell-based functional assay: calcium mobilization, positive allosteric modulator mode (increase in EC20 acetylcholine response)
# settings: Table 2; human M1; read-out: Human M1 Emax (%)
Respond with the bare value in %.

The cases that follow already have their Emax on record.
- compound: "Cn1ccc2nc(C(=O)NC3COC3)cc(Cc3ccc(-c4cscn4)cc3)c21"
  test_result: 61.2
- compound: "Cn1ccc(-c2ccc(Cc3cc(C(=O)N[C@H]4CCCC[C@@H]4O)nc4ccn(C)c34)cn2)n1"
  test_result: 70.8
- compound: "O=C(NC1CCCCNC1=O)c1cc(Cc2ccc(-c3cscn3)cc2)c2sccc2n1 (centres unmarked)"
  test_result: 80.3
- compound: "O=C(NC1CC(F)C1)c1cc(Cc2ccc(-c3nccs3)cc2)c2sccc2n1 (centres unmarked)"
  test_result: 71.9
- compound: "Cn1ccc(-c2ccc(Cc3cc(C(=O)NC4CCOCC4)nc4ccsc34)cc2)n1"
  test_result: 71.6

**Q:** Hello, I am looking for reported Emax with human mAChR M1 (Homo sapiens, UniProt P11229) for Cc1ccc([C@@H](F)c2cc(C(=O)N[C@H]3CCCC[C@@H]3O)nc3ccsc23)cn1 . Could you help?
**A:** 64.6

**Q:** Give Emax (human mAChR M1 (Homo sapiens, UniProt P11229)) of the following compound: Cc1nn(C)cc1-c1ccc(Cc2cc(C(=O)NC3COC3)nc3ccsc23)cc1
**A:** 15

**Q:** Find the measured Emax: item Cc1nc(-c2ccc(Cc3cc(C(=O)N[C@@H]4CCC[C@H]4O)nc4ccsc34)cc2)cs1 , target or system human mAChR M1 (Homo sapiens, UniProt P11229).
**A:** 84

**Q:** Missing value: Emax, human mAChR M1 (Homo sapiens, UniProt P11229), entry O=C(N[C@H]1CCOC[C@@H]1O)c1cc(Cc2ccc(-n3cccn3)cc2)c2sccc2n1 . Fill in?
**A:** 61.6

**Q:** GET /values?readout=Emax&system=human mAChR M1 (Homo sapiens, UniProt P11229)&item= O=C(NCC1CCO1)c1cc(Cc2ccc(-c3nccs3)cc2)c2sccc2n1 (centres unmarked)
**A:** 56.6

**Q:** Provide value of Emax for this record tested with human mAChR M1 (Homo sapiens, UniProt P11229): CC1CC(NC(=O)c2cc(Cc3ccc(-c4ccn(C)n4)nc3)c3sccc3n2)CC(C)O1 (centres unmarked)
**A:** 58.7

**Q:** Query the reported Emax for human mAChR M1 (Homo sapiens, UniProt P11229); item: Cn1cc(-c2ccc(Cc3cc(C(=O)N[C@@H]4CC[C@H]4O)nc4ccsc34)c(F)c2)cn1
**A:** 31.1
